System: ACHN renal
Experiment: NCI tumour cell line growth inhibition, 48 h
Measured TGI values are reported for all entries that follow.

Example results:
>>> result("CCN(CC)c1ccc(NC(C(=O)c2ccccc2)c2ccccc2)cc1 (stereo not given)")
"3.82 µM"
>>> result("Cc1cc(N(CCCl)CCCl)ccc1C=Nc1cccnc1")
"> 100 µM"
>>> result("Cc1c2c(n3c(nc4ccccc43)c1C#N)N(c1ccc(Cl)cc1)CC2")
"> 100 µM"
>>> result("COc1c(C2(c3ccc(F)cc3)SCCCS2)c(=O)c1=O")
"> 100 µM"
>>> result("Cc1ccc(-c2cc(-c3ccco3)nc(N)n2)o1")
"> 100 µM"
>>> result("NCCC1(N)CCNCC1")
"> 100 µM"

Q: Which TGI is reported for this molecule? COc1ccc2c(c1)Oc1nc(N)c(C#N)c(N)c1C2Sc1ccc(SC)cc1 (stereo not given)
A: 3.11 µM
